These data points were gathered from PubChem BioAssay (NCI).

For each entry below, report its TGI value.
system: SF-539 CNS; assay: NCI tumour cell line growth inhibition, 48 h
Answers are plain numbers, in µM.

Before answering, review these 2 worked examples.
# Molecule, Measured On, TGI / µM
measured = [
    ("CC(C)c1nc(CN(C)C(=O)N[C@H](C(=O)N[C@@H](Cc2ccccc2)C[C@H](O)[C@H](Cc2ccccc2)NC(=O)OCc2cncs2)C(C)C)cs1", "SF-539 CNS", 49.4),
    ("COc1cc(C2NC(=O)c3ccccc3N2)ccc1OCCCCCOc1c(OC)cc(C2=NOC(c3cc(OC)c(OC)c(OC)c3)C2)cc1OC (centres undefined)", "SF-539 CNS", 84.7),
]

For the next question, use this molecule.
QUERY: TGI for Brc1ccc2c(-c3csc(-c4c[nH]c5ccc(Br)cc45)n3)c[nH]c2c1 ?
RESULT: 15.1

----------
test system: HOP-92 NSCLC; assay: NCI tumour cell line growth inhibition, 48 h
Readout: log10(TGI) (log10 of the value in µM)
On a log10 scale: recorded TGI, unit µM.

# Compound, log10(TGI)
measured = [
    ("CCN(CC)c1ccc(/C=C/c2ccc3cc(C)ccc3[n+]2CC)cc1", -0.06),
    ("O=[N+]([O-])c1ccc(NC(=S)N=Nc2c(O)[nH]c3ccc(Br)cc23)cc1", 1.36),
    ("CN1CCN(C)C12C=c1ccccc1=CC21CC1", 1.90),
    ("FC(F)(F)c1ccc2nc3n(c2c1)C(c1c(Cl)cccc1Cl)SC3 (stereo unspecified)", 1.25),
]

For the next question, use this compound.
QUERY: log10(TGI) for O=C(/C=C/c1c(O)ccc2ccccc12)c1cccc(O)c1 ?
RESULT: 2.00

----------
system: NCI-H23 lung; assay: NCI tumour cell line growth inhibition, 48 h
Readout: TGI

Before answering, review these 2 worked examples.
# Compound, Result
data = [
    ("O=C(O)C(CO)NC(=O)n1c2ccccc2c2ccccc21 (stereo not given)", "> 100 µM"),
    ("N#Cc1cc2c(cc1Cl)Sc1nccn1S2(=O)=O", "3.35 µM"),
]

Please give TGI, item by item, for the list that follows.
1. OC1(c2ccc(Cl)cc2)c2ccc3ccccc3c2C2=N[C@H]3CCCC[C@@H]3N21 (stereo not given in full)
2. CC(C)c1nc(CN(C)C(=O)N[C@H](C(=O)N[C@@H](Cc2ccccc2)C[C@H](O)[C@H](Cc2ccccc2)NC(=O)OCc2cncs2)C(C)C)cs1
3. NC(=O)c1cc2ccccc2o/c1=N/O
4. NC(N)=Nc1ncccc1[N+](=O)[O-]
5. C=CC(=O)N1CC2(CCN(c3nc(OC4CCN(CCCOC)CC4)nc4c(OCC(F)(F)F)c(-c5c(C)ccc6[nH]ncc56)c(C5CC5)cc34)CC2)C1
6. Nc1ccc(S(=O)(=O)Nc2nc3ccccc3nc2N2CCCCC2)cc1
7. Cc1nc(C)c(Cc2ccccc2)o1

RESULT:
> 100 µM
> 100 µM
> 100 µM
> 100 µM
1.95 µM
> 100 µM
> 100 µM

QUERY: # value lookup — system NCI-H23 lung, readout TGI, item C=CCCCCCCCCC(=O)[O][Sn]([CH2]CCC)([CH2]CCC)[CH2]CCC
RESULT: 0.254 µM

----------
test system: RPMI-8226 leukemia; experiment: NCI tumour cell line growth inhibition, 48 h
Readout: TGI

Please give TGI, item by item, for the list that follows.
1. CCN(CC)CCOc1ccc(/C(=C(\Cl)c2ccccc2)c2ccccc2)cc1
2. COC(=O)Cc1c([C@H]2[C@H](CC(=O)OC)c3ccccc3N2C(C)=O)[nH]c2ccccc12

RESULT:
1. 6.98 µM
2. > 100 µM

Please give TGI, item by item, for the list that follows.
1. CC(=O)OCCN1c2ccccc2Sc2cnccc21
2. CC(C)(C)c1cc(/C=C(\C#N)C(=O)NCCO)cc(C(C)(C)C)c1O
3. C/C(CC(=O)Nc1cc(Cl)c(Cl)cc1Cl)=N\NC(N)=O
4. CN1CCN(C(=O)OCc2nc3c(N4CCOCC4)nc(Cl)nc3n2C)CC1
5. N#Cc1cc([N+](=O)[O-])ccc1NC(=O)C(=O)Nc1n[nH]c(N)n1
6. O=C1O[C@@H](c2ccc3c(c2)OCO3)C2C(=O)O[C@@H](c3ccc4c(c3)OCO4)C12 (stereo partly specified)
7. O=c1[nH]nc(-c2ccccc2)c2[nH]c(-c3ccccc3)cc12
8. CCCn1cnc2c(SCc3ccccc3Cl)nc(N)nc21

RESULT:
> 10 µM
35.6 µM
> 100 µM
1.63 µM
> 100 µM
> 100 µM
> 100 µM
28.2 µM

QUERY: TGI for Brc1cc2nn(-c3ccccc3)nc2c2nonc12 ?
RESULT: > 100 µM

----------
system: DU-145 prostate; assay: NCI tumour cell line growth inhibition, 48 h
Readout: TGI

Please give TGI, item by item, for the list that follows.
1. FC(F)(F)c1ccc2nc3n(c2c1)C(c1c(Cl)cccc1Cl)SC3 (stereo not given)
2. N#CSc1c[nH]c2cccc(/C=C/C(=O)/C=C(/C=C/c3cccc4[nH]cc(SC#N)c34)OB(F)F)c12
3. COc1cc(CN2CCCCC2)cc2cc(C(=O)O)c(=O)oc12
4. Cc1ccc(NC(=O)c2cccc(N(C)C)c2)cc1NC(=O)c1ccc(O)cc1
5. COc1cc(/C=C\C(=O)O)ccc1OCc1ccccc1

RESULT:
1: 32.3 µM; 2: 2.63 µM; 3: > 100 µM; 4: > 100 µM; 5: > 100 µM

----------
For each entry below, report its TGI value.
test system: DLD-1 colon; assay: NCI tumour cell line growth inhibition, 48 h

# Compound, Result
data = [
    ("CC[CH2][Sn]([CH2]CC)([O]C(=O)c1cccnc1SC)[O][Sn]([CH2]CC)([CH2]CC)[O]C(=O)c1cccnc1SC", "0.998 µM"),
    ("CCCCN=C(NC#N)NCCCC", "> 100 µM"),
    ("COC1(OC)CCCCC2c3cccc(OC(C)=O)c3C21OC(C)=O (configuration not stated)", "> 100 µM"),
    ("C=CCOCCCCC(C(C)=O)C(=O)OC (configuration not stated)", "> 100 µM"),
    ("CC(=O)CNC(=O)OC(C)(C)C", "> 100 µM"),
    ("O=C(O)C(CS)N=c1c2ccccc2n(O)c2ccccc12 (configuration not stated)", "> 100 µM"),
    ("O=C1CCC(=O)N2CCCCN12", "> 100 µM"),
    ("COC(=O)/C(=N/NC(=O)C[N+](C)(C)C)C(C(=O)OC)C(=O)C(=O)Nc1ccc(F)cc1 (configuration not stated)", "> 100 µM"),
    ("C/C(CC(=O)Nc1ccc(C)cc1C)=N/N=C(N)N", "> 100 µM"),
    ("CCOC(=O)C1=C(OC(OCC)C(CC)[Se]c2ccccc2)CCCC1 (configuration not stated)", "35.5 µM"),
]

Please give TGI, item by item, for the list that follows.
1. CC1=NN(C(=O)Nc2ccccc2)C(=O)C2CCC(=O)N12 (configuration not stated)
2. COC(=O)c1c/c(=N\NC(=O)CC(=O)Nc2ccccc2OC)c2ccccc2o1

RESULT:
["> 100 µM", "> 100 µM"]

----------
system: SF-268 CNS; experiment: NCI tumour cell line growth inhibition, 48 h
For each entry below, report its TGI value.

Before answering, review these 5 worked examples.
# Compound, Result
measured = [
    ("COc1ccc(C2=CC3CCC2C3)cc1 (stereo not given)", "> 100 µM"),
    ("COc1ccc(-c2c(C#N)c(N)nc3c2CCS(=O)(=O)c2ccccc2-3)cc1", "> 100 µM"),
    ("O=c1c2ccccc2nc(Nc2cccc(Cl)c2)n1/N=C/C=C/c1ccccc1", "> 100 µM"),
    ("COc1ccc2c(c1)CC1=C(O2)c2ccc(OC)cc2OC1", "68.5 µM"),
    ("CC1(C)C=C(S(=O)(=O)c2ccccc2)Oc2ccccc2O1", "> 100 µM"),
]

Please give TGI, item by item, for the list that follows.
1. Brc1cccc(N=NN2CCCC2)c1
2. CN1CCN(C)C12C=c1ccccc1=CC21CC1
3. NC(N)=NS(=O)(=O)c1ccc(NC(=O)c2ccc3nc4ccccc4c(Nc4ccc(S(=O)(=O)N=C(N)N)cc4)c3c2)cc1
4. [Cl-].[Dy+3].[O-]/N=C(\c1ccccc1)c1ccccn1.[O-]/N=C(\c1ccccc1)c1ccccn1.[O-]/N=C(\c1ccccc1)c1ccccn1
5. COC(=O)c1c/c(=N\NC(=O)CC(=O)Nc2ccccc2OC)c2ccccc2o1

RESULT:
1: > 100 µM; 2: > 77 µM; 3: > 100 µM; 4: 98.9 µM; 5: > 100 µM
